experimental_system: T1, soluble KDR extracellular domain (ECD) (Calbiochem) (human, UniProt P35968 20-764)
T1 construct: extracellular domain; Bought protein; also called KDR-ECD; VEGF Receptor 2 D1-7, Cat. #676490
T1 sequence (P35968 20-764): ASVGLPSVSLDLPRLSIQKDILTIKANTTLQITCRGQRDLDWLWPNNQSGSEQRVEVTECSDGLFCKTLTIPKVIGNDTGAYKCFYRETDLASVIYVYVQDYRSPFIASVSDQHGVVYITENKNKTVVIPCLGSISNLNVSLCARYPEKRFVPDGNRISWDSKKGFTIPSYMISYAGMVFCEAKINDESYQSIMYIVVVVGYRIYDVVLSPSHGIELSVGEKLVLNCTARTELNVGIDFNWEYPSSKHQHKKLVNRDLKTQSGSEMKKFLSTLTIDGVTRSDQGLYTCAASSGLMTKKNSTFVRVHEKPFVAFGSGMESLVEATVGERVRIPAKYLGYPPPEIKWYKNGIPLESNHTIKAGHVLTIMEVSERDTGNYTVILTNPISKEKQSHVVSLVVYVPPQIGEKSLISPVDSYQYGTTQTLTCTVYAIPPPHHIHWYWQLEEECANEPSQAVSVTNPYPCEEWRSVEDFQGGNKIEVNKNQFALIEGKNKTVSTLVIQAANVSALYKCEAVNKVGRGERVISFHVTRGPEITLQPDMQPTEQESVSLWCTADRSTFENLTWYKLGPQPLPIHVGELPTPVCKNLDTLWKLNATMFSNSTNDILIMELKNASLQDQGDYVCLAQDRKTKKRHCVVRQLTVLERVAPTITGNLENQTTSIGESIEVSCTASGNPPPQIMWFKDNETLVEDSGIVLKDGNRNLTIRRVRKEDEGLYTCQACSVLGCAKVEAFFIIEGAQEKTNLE
experiment_summary: Limited Antigen ELISA, KDR coat 3.125 ng/mL, supernatant 1:25
reported_property: ELISA reading
Give the figure only, with no unit attached.

// ELISA reading lookup, key: 30A1 (antibody, V domains shown, Fully human mAb from XenoMouse hybridoma, tested as hybridoma supernatant) VH: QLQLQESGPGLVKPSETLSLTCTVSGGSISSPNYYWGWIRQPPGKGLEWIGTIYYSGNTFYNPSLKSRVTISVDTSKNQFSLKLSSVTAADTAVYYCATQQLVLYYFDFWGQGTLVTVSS VL: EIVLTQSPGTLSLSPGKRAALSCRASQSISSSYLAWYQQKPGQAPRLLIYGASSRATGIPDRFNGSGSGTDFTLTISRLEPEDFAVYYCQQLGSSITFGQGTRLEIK
0.15
